target: MAGEB2 peptide … / HLA-A*02:01 / b2m (human); test: FACS
Endpoint: pKd
Units for pKd: none; it is -log10 of a concentration expressed in mol/L.

Consider the reported pKd for these binders:
[[record]]
binder = "MA 10-G2 CC (T1S) (antibody, V domains shown) VH: EVQLVESGGGLVQPGGSLRLSCAASGFTFSNAWMSWVRQAPGKCLEWVGRILSMHYGGTTDYAAPVKGRFTISRDDSKNTLYLQMNSLKTEDTAVYYCTTPSYSGSYYNYFSVMDVWGQGTTVTVSS VL: DIQMTQSPSSLSASVGDRVTITCRTSQSISSYLNWFQQKPGKAPKLLIFAASSLQSGVPSRFSGSGSGTDFTLTISSLQPEDFATYYCQQTYSMPFTFGCGTKVDIK"
endpoint = "pKd"
reported_value = 9.00

[[record]]
binder = "MA 10-B5 CC (H6H) (antibody, V domains shown) VH: EVQLVESGGGLVQPGGSLRLSCAASGFTFSNAWMSWVRQAPGKCLEWVGRIRSRSYGGTTDYAAPVKGRFTISRDDSKNTLFLQMNSLKTEDTAVYYCTTPSYSGSYYNYFSVMDVWGQGTTVTVSS VL: DIQMTQSPSSLSASVGDRVTITCRTSQSISSYLNWYQQKPGRAPKLLIFAASSLQGGVPSRFSGSGSGTDFTLTISSLQPEDFATYYCQQTYSMPFTFGCGTKVEIK"
endpoint = "pKd"
reported_value = 9.15


Let us move to another entry and its pKd.
**Query** Please give the measured pKd for this binder: MA 09-G10 CC (C4K) (antibody, V domains shown) VH: QITLKESGPTLVKPTQTLTLTCTFSGFSFTTHKMGVDWIRQPPGKCLEWLAGIHIYDDKRYSPSLQSRLTITKDTSKNQVVLTMTNMDPVDTATYYCAYRRYNWNYENWFDPWGQGTLVTVSS VL: DIQMTQSPSSLSASVGDRVTITCQASQDISNYFNWYQQKPGKAPKLLIYAASSLQSGVPSRFSGSGSGTDFTLTISSLQPEDFATYYCQQSYITPFTFGCGTKVEIK
**Result** 9.10
